- test details: CellTiter-Glo cytotoxicity in MonoMac-6 cells
- Format: cell-based, human
- condition label: human, MonoMac-6 cells; 24-h incubation, up to 50 μM; read-out: MonoMac-6 Cell Cytotoxicity IC50
quantity name: IC50 at 24 h

Below: 6 molecules and their reported IC50 at 24 h.
[[record]]
smiles_text = "ON=C1c2ccccc2-c2nc3c(Br)cc(C(F)(F)F)cc3nc21"
endpoint_result = "29 µM"

[[record]]
smiles_text = "ON=C1c2ccccc2-c2nc3c(Cl)cccc3nc21"
endpoint_result = "> 50 µM"

[[record]]
smiles_text = "ON=C1c2ccccc2-c2nc3cc(F)ccc3nc21"
endpoint_result = "> 50 µM"

[[record]]
smiles_text = "COC(=O)c1ccc2nc3c(nc2c1)C(=NO)c1ccccc1-3"
endpoint_result = "> 50 µM"

[[record]]
smiles_text = "O/N=C1/c2ccccc2-c2nc3c(Cl)cc(C(F)(F)F)cc3nc21"
endpoint_result = "> 50 µM"

[[record]]
smiles_text = "ON=C1c2ccccc2-c2nc3c(CN4CCOCC4)cccc3nc21"
endpoint_result = "> 50 µM"


Ask | Any idea what its IC50 at 24 h is? The molecule is Cc1cc(Br)cc2nc3c(nc12)-c1ccccc1C3=NO
Reply | 14.6 µM

Ask | Any idea what its IC50 at 24 h is? The molecule is ON=C1c2ccccc2-c2nc3c(F)c(F)ccc3nc21
Reply | 32 µM

Ask | Any idea what its IC50 at 24 h is? The molecule is ON=C1c2ccccc2-c2nc3cc(F)c(F)cc3nc21
Reply | > 50 µM

Ask | Any idea what its IC50 at 24 h is? The molecule is ON=C1c2ccccc2-c2nc3c(F)cc(F)cc3nc21
Reply | > 50 µM

---

- Test system: JNK1-3
- test details: KINOMEscan binding, statements for all three JNK isoforms
- condition label: summary of Table 3
quantity name: Binding affinity (Kd) for all three JNK isoforms, in words

[[record]]
smiles_text = "O/N=C1/c2ccccc2-c2nc3c(Cl)cc(C(F)(F)F)cc3nc21"
endpoint_result = "inactive"

[[record]]
smiles_text = "COC(=O)c1ccc2nc3c(nc2c1)C(=NO)c1ccccc1-3"
endpoint_result = "submicromolar"

[[record]]
smiles_text = "ON=C1c2ccccc2-c2nc3c(Br)cc(C(F)(F)F)cc3nc21"
endpoint_result = "inactive"

[[record]]
smiles_text = "ON=C1c2ccccc2-c2nc3cc(F)ccc3nc21"
endpoint_result = "submicromolar"

[[record]]
smiles_text = "ON=C1c2ccccc2-c2nc3c(C(F)(F)F)cc(C(F)(F)F)cc3nc21"
endpoint_result = "inactive"


Ask | Any idea what its Binding affinity (Kd) for all three JNK isoforms, in words is? The compound is ON=C1c2ccccc2-c2nc3c(Cl)cccc3nc21
Reply | submicromolar

Ask | Any idea what its Binding affinity (Kd) for all three JNK isoforms, in words is? The compound is ON=C1c2ccccc2-c2nc3c(F)cc(F)cc3nc21
Reply | submicromolar

Ask | Any idea what its Binding affinity (Kd) for all three JNK isoforms, in words is? The compound is Cc1cc(Br)cc2nc3c(nc12)-c1ccccc1C3=NO
Reply | inactive

---

- study system: JNK1 (Homo sapiens)
- Construct: purchased Eurofins Pharma Discovery (KINOMEscan)
- Sequence (P45983 whole entry): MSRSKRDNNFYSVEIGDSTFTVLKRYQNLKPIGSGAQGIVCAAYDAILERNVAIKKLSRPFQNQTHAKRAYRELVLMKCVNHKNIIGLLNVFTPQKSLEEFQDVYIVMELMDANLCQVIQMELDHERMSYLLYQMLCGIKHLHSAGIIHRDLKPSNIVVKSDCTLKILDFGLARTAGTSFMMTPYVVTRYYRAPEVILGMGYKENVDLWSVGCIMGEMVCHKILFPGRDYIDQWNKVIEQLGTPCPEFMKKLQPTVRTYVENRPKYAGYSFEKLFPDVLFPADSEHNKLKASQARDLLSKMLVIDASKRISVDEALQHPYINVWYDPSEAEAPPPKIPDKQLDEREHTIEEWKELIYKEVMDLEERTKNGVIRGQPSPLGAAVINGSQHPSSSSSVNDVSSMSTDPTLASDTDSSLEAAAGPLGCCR
- test details: KINOMEscan Kd determination, JNK1
- condition label: duplicate, mean, N.B. = no binding at < 30 μM
quantity name: Kd (nM)
Just the number please, in nM, no unit attached.

[[record]]
smiles_text = "ON=C1c2ccccc2-c2nc3c(F)c(F)ccc3nc21"
endpoint_result = 520


Proceed to the following item.
Ask | What is its Kd for JNK1 (Homo sapiens)? Entry: ON=C1c2ccccc2-c2nc3cc(F)c(F)cc3nc21
Reply | 170

---

The following compounds are shown together with reported Kd values.
- study system: JNK3 (Homo sapiens)
- Construct: purchased Eurofins Pharma Discovery (KINOMEscan)
- test details: KINOMEscan Kd determination, JNK3
- condition label: duplicate, mean, N.B. = no binding at < 30 μM
- Experimental: Selected compounds were submitted for dissociation constant (Kd) determination using KINOMEscan (Eurofins Pharma Discovery, San Diego, CA, USA), as described previously. […] Primary screening at fixed concentrations of compounds was performed in duplicate.
Just the number please, in nM, no unit attached.

Below: 3 compounds and their reported Kd.
[[record]]
smiles_text = "CC(C)(C)c1ccc2nc3c(nc2c1)-c1ccccc1/C3=N/O"
quantity_name = "Kd"
output_unit = "nM"
endpoint_result = 3100

[[record]]
smiles_text = "ON=C1c2ccccc2-c2nc3c(Cl)cccc3nc21"
quantity_name = "Kd"
output_unit = "nM"
endpoint_result = 140

[[record]]
smiles_text = "ON=C1c2ccccc2-c2nc3cc(F)c(F)cc3nc21"
quantity_name = "Kd"
output_unit = "nM"
endpoint_result = 520


Proceed to the following item.
Ask | Any idea what its Kd is? The compound is ON=C1c2ccccc2-c2nc3c(F)cc(F)cc3nc21
Reply | 900

---

The following compounds are shown together with reported pKd values.
- study system: JNK2 (Homo sapiens)
- Construct: purchased Eurofins Pharma Discovery (KINOMEscan)
- Sequence (P45984 whole entry): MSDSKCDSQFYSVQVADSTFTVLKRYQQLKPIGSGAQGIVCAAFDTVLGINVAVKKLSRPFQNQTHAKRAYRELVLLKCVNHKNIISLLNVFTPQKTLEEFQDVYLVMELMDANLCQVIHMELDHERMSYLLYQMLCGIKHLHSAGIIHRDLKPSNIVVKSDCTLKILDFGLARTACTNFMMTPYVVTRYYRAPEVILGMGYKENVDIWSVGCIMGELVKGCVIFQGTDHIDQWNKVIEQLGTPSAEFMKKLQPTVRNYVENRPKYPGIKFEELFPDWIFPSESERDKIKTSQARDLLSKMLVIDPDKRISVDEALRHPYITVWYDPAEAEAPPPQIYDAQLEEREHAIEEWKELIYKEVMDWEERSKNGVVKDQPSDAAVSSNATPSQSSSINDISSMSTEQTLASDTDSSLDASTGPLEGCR
- test details: KINOMEscan Kd determination, JNK2
- condition label: duplicate, mean, N.B. = no binding at < 30 μM
Reminder that pKd means the negative base-10 logarithm of the concentration expressed in mol/L.

[[record]]
smiles_text = "ON=C1c2ccccc2-c2nc3c(Cl)cccc3nc21"
endpoint_result = 6.66


Ask | What is its pKd for JNK2 (Homo sapiens)? Entry: ON=C1c2ccccc2-c2nc3c(F)cc(F)cc3nc21
Reply | 5.80

---

quantity name: melting point

Ask | Any idea what its melting point is? The molecule is ON=C1c2ccccc2-c2nc3c(C(F)(F)F)cc(C(F)(F)F)cc3nc21
Reply | 253 to 254 °C

Ask | Any idea what its melting point is? The molecule is ON=C1c2ccccc2-c2nc3cc(F)ccc3nc21
Reply | 250 to 251 °C

Ask | Any idea what its melting point is? The molecule is ON=C1c2ccccc2-c2nc3c(F)cc(F)cc3nc21
Reply | 255 to 256 °C

Ask | Any idea what its melting point is? The molecule is Cc1cc(Br)cc2nc3c(nc12)-c1ccccc1C3=NO
Reply | 255 to 256 °C

Ask | Any idea what its melting point is? The molecule is ON=C1c2ccccc2-c2nc3cc(F)c(F)cc3nc21
Reply | 250 to 251 °C

Ask | Any idea what its melting point is? The molecule is ON=C1c2ccccc2-c2nc3cc(F)c(Cl)cc3nc21
Reply | 276 to 277 °C

---

The following compounds are shown together with reported pKd values.
- study system: JNK3 (Homo sapiens, UniProt P53779)
- Construct: purchased Eurofins Pharma Discovery (KINOMEscan)
- Sequence (P53779 whole entry): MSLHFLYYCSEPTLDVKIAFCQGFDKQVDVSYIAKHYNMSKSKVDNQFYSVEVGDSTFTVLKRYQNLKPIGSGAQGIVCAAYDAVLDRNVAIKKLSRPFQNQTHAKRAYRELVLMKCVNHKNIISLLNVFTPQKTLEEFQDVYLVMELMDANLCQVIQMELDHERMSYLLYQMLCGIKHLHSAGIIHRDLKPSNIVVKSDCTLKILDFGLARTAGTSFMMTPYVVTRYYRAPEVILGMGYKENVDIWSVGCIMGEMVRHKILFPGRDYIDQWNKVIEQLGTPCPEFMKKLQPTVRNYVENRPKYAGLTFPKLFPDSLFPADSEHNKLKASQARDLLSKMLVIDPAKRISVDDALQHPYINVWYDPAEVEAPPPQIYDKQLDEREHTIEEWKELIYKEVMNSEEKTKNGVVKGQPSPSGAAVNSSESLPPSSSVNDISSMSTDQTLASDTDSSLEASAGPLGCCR
- test details: KINOMEscan Kd determination, JNK3
- condition label: duplicate, mean, N.B. = no binding at < 30 μM
Reminder that pKd means the negative base-10 logarithm of the concentration expressed in mol/L.

Below: 4 compounds and their reported pKd.
[[record]]
compound = "COC(=O)c1ccc2nc3c(nc2c1)C(=NO)c1ccccc1-3 [Compound 4l]"
quantity_name = "pKd"
endpoint_result = 6.15

[[record]]
compound = "ON=C1c2ccccc2-c2nc3c(CN4CCOCC4)cccc3nc21 [Compound 4m]"
quantity_name = "pKd"
endpoint_result = 6.04

[[record]]
compound = "ON=C1c2ccccc2-c2nc3cc(F)ccc3nc21 [Compound 4a]"
quantity_name = "pKd"
endpoint_result = 6.72

[[record]]
compound = "ON=C1c2ccccc2-c2nc3c(F)c(F)ccc3nc21 [Compound 4g]"
quantity_name = "pKd"
endpoint_result = 5.96


Ask | Any idea what its pKd is? The compound is ON=C1c2ccccc2-c2nc3cc(F)c(Cl)cc3nc21 [Compound 4k]
Reply | 4.61

---

- System: NF-κB/AP-1
- test details: LPS-induced NF-κB/AP-1 alkaline phosphatase reporter assay in THP1-Blue cells
- Type: cell-based
- condition label: Homo sapiens; 30 min pretreatment, 250 ng/mL LPS for 24 h; read-out: THP-1Blue Cell NF-κB/AP-1 IC50
quantity name: pIC50
Reminder that pIC50 means the negative base-10 logarithm of the concentration expressed in mol/L.

Below: 5 compounds and their reported pIC50.
[[record]]
smiles_text = "ON=C1c2ccccc2-c2nc3cc(F)c(Cl)cc3nc21"
study_system = "NF-κB/AP-1"
quantity_name = "pIC50"
endpoint_result = 6.22

[[record]]
smiles_text = "ON=C1c2ccccc2-c2nc3cc(F)ccc3nc21"
study_system = "NF-κB/AP-1"
quantity_name = "pIC50"
endpoint_result = 6.52

[[record]]
smiles_text = "ON=C1c2ccccc2-c2nc3c(F)cc(F)cc3nc21"
study_system = "NF-κB/AP-1"
quantity_name = "pIC50"
endpoint_result = 6.40

[[record]]
smiles_text = "ON=C1c2ccccc2-c2nc3c(Cl)cccc3nc21"
study_system = "NF-κB/AP-1"
quantity_name = "pIC50"
endpoint_result = 6.05

[[record]]
smiles_text = "ON=C1c2ccccc2-c2nc3c(CN4CCOCC4)cccc3nc21"
study_system = "NF-κB/AP-1"
quantity_name = "pIC50"
endpoint_result = 7.00


Ask | Any idea what its pIC50 is? The compound is ON=C1c2ccccc2-c2nc3c(F)c(F)ccc3nc21
Reply | 5.68

Ask | Any idea what its pIC50 is? The compound is ON=C1c2ccccc2-c2nc3c(Br)cc(C(F)(F)F)cc3nc21
Reply | 5.60

Ask | Any idea what its pIC50 is? The compound is O/N=C1/c2ccccc2-c2nc3c(Cl)cc(C(F)(F)F)cc3nc21
Reply | 5.54

Ask | Any idea what its pIC50 is? The compound is CC(C)(C)c1ccc2nc3c(nc2c1)-c1ccccc1/C3=N/O
Reply | 6.40

Ask | Any idea what its pIC50 is? The compound is ON=C1c2ccccc2-c2nc3cc(F)c(F)cc3nc21
Reply | 5.96
